- experimental-system: purified recombinant human IDO1 (rhIDO1) (Homo sapiens)
- Construct: purchased Origene
- Sequence (P14902 whole entry): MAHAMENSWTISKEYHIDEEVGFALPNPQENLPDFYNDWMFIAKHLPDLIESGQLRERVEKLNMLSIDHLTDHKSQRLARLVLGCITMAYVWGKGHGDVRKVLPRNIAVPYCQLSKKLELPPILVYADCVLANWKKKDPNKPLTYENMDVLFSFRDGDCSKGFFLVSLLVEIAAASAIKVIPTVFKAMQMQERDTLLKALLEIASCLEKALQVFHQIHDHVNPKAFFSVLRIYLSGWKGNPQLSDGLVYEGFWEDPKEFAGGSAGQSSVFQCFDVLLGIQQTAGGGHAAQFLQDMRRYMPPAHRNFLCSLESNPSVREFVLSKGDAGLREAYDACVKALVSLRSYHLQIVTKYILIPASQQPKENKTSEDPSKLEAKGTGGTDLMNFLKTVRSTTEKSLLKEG
- assay-overview: rhIDO1 enzymatic assay (conversion of L-Trp to L-KYN, p-dimethylaminobenzaldehyde readout)
- Assay type: biochemical
- condition-notes: rhIDO1; concentration-response curves, at least three experiments in triplicate
pIC50: −log10 of the molar value.
experimental-readout: pIC50

(I) N#CCc1ccc(-c2cn(Cc3cnc4scc(-c5ccc(Br)cc5)n34)nn2)cc1 [11f]
(II) O=C(O)CCc1cn(Cc2cnc3scc(-c4ccc(Br)cc4)n23)nn1 [11j]
(III) O=C(Cn1cc(C2CC2)nn1)NCc1cnc2scc(-c3ccc(Br)cc3)n12 [12g]
Ordering: ascending pIC50. // ordering of labels required in reply
II, I, III
(II: 5.96, I: 6.30, III: 6.70)
